test system: Rattus norvegicus; assay: Antiinflammatory activity in rat assessed as inhibition of carrageenan-induced paw edema at 100 mg/kg, po administered as two doses 3 and 0.5 hr prior to challenge measured 2.5 hrs post challenge; format: functional
recordedMetric: inhibition in vivo at 100 mg/kg (%)

molecule="CC(CO)c1ccc2nc(-c3ccccc3)oc2c1 (centres undefined)" datavalue=61
molecule=O=C(O)Cc1ccc2nc(-c3ccccc3)oc2c1 datavalue=60
molecule=CCOC(=O)Cc1ccc2nc(-c3ccccc3)oc2c1 datavalue=61
molecule=OCCc1ccc2nc(-c3ccccc3)oc2c1 datavalue=47

----------
assay: Toxicity in po dosed rat; type: organism-based; conditions: in vivo
Recorded LD50, one value per entry.
recordedMetric: LD50 (mg/kg)

molecule="CC(C(=O)O)c1ccc2nc(-c3ccc(Cl)cc3)oc2c1 (centres undefined)" recordedmetric=LD50 uom=mg/kg relationqualifier== datavalue=1200
molecule="CC(CO)c1ccc2nc(-c3ccccc3)oc2c1 (centres undefined)" recordedmetric=LD50 uom=mg/kg relationqualifier== datavalue=800
molecule=OCCc1ccc2nc(-c3ccccc3)oc2c1 recordedmetric=LD50 uom=mg/kg relationqualifier=> datavalue=1600
molecule="CC(C(=O)O)c1ccc2oc(-c3ccc(Cl)cc3)nc2c1 (centres undefined) [BENOXAPROFEN]" recordedmetric=LD50 uom=mg/kg relationqualifier== datavalue=800
molecule=O=C(O)Cc1ccc2nc(-c3ccccc3)oc2c1 recordedmetric=LD50 uom=mg/kg relationqualifier== datavalue=1200
molecule=CCOC(=O)Cc1ccc2nc(-c3ccccc3)oc2c1 recordedmetric=LD50 uom=mg/kg relationqualifier== datavalue=1200
molecule=Cl.NCCc1ccc2nc(-c3ccccc3)oc2c1 recordedmetric=LD50 uom=mg/kg relationqualifier== datavalue=300
molecule="CC(CN)c1ccc2nc(-c3ccccc3)oc2c1.O=C(O)CCC(=O)O (centres undefined)" recordedmetric=LD50 uom=mg/kg relationqualifier== datavalue=300
molecule="CC(C(=O)O)c1ccc2nc(-c3ccccc3)oc2c1 (centres undefined)" recordedmetric=LD50 uom=mg/kg relationqualifier== datavalue=600
molecule="Cc1ccc(-c2nc3ccc(C(C)C(=O)O)cc3o2)cc1 (centres undefined)" recordedmetric=LD50 uom=mg/kg relationqualifier== datavalue=1200
molecule="CC(C(=O)O)c1ccc2nc(-c3ccc(Cl)cc3Cl)oc2c1 (centres undefined)" recordedmetric=LD50 uom=mg/kg relationqualifier== datavalue=300
molecule="CC(C(=O)O)c1ccc2nc(-c3ccc(F)cc3)oc2c1 (centres undefined)" recordedmetric=LD50 uom=mg/kg relationqualifier== datavalue=1200
molecule="CC(C(=O)O)c1ccc2nc(-c3ccccc3Cl)oc2c1 (centres undefined)" recordedmetric=LD50 uom=mg/kg relationqualifier== datavalue=1200
molecule=Cc1ccc2nc(-c3ccccc3)oc2c1 recordedmetric=LD50 uom=mg/kg relationqualifier=< datavalue=1600
